- System: Pseudomonas aeruginosa
- Measurement notes: Antibacterial activity against Pseudomonas aeruginosa ATCC 9027 after 24 hrs by microbroth double dilution method
- Type: functional
- Test parameters: ATCC 9027, 24 h
Consider the following compounds; for each one, report its MIC.
# value in µM; strip the unit string

input: Can you look up the measured MIC of `CC(C)[C@@H](NC1=CC(=O)C=C(C(C)(C)C)C1=O)C(=O)O` for me?
output: 2240

input: Can you look up the measured MIC of `CC1=CCC[C@H]2[C@](C)(CC3=CC(=O)C=C(NCC(=O)O)C3=O)[C@@H](C)CC[C@]12C` for me?
output: 407

input: Can you look up the measured MIC of `CC1=CCC[C@H]2[C@](C)(CC3=CC(=O)C=C(N[C@@H](C)C(=O)O)C3=O)[C@@H](C)CC[C@]12C` for me?
output: 195

input: Can you look up the measured MIC of `CC1=CCC[C@H]2[C@](C)(CC3=CC(=O)C=C(N[C@@H](Cc4c[nH]c5ccccc45)C(=O)O)C3=O)[C@@H](C)CC[C@]12C` for me?
output: 37.9
